- test.details: Aqueous solubility in pH 7.4 phosphate buffer at 25 degC incubated for 24 hrs
- Assay type: physicochemical
measurement.label: solubility at 24 h

Report solubility at 24 h for CC(C)(C)c1c(C(=O)NC2C3CC4CC(C3)CC2C4)cnn1-c1ccc(C(=O)O)cc1 (stereo unspecified) please.
> 1900 µM

----------
- target.system: CYP2C9 (Homo sapiens)
- Sequence (P11712 whole entry): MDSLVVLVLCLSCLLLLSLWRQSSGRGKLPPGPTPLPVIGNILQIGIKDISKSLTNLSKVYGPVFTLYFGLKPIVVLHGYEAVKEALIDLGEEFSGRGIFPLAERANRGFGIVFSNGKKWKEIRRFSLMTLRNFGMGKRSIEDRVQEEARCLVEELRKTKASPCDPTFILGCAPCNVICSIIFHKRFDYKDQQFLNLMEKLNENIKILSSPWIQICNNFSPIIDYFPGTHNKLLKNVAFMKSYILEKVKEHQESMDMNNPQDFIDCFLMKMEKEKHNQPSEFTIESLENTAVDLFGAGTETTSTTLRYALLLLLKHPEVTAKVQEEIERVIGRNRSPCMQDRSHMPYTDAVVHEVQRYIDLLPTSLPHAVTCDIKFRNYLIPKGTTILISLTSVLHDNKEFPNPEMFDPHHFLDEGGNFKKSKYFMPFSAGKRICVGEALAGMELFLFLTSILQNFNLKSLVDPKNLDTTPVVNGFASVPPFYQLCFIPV
- test.details: Inhibition of CYP2C9 at 10 uM
- Type: ADME
measurement.label: inhibition at 10 µM

Notebook: pull reported inhibition at 10 µM for CYP2C9 (Homo sapiens), entry CC(C)(C)c1c(C(=O)NC2C3CC4CC(C3)CC2C4)cnn1-c1ccc(C(=O)O)cc1 (stereo unspecified)
< 25%

----------
- test.details: Half life in mouse at 1 and 3 mg/kg, iv
- Assay type: ADME, organism-based
- Set-up: dose 3 mg/kg, route intravenous
- condition.context: in vivo
measurement.label: half-life (min)
Record the value in min, omitting the unit from your answer.

Report half-life for CC(C)(C)c1c(C(=O)NC2C3CC4CC(C3)CC2C4)cnn1-c1ccc(C(=O)O)cc1 (stereo unspecified) please.
48

----------
- test.details: Percentage unbound in mouse plasma at 37 degC by equilibrium dialysis method
- Type: ADME, cell-free
measurement.label: fraction unbound

Report fraction unbound for CC(C)(C)c1c(C(=O)NC2C3CC4CC(C3)CC2C4)cnn1-c1ccc(C(=O)O)cc1 (stereo unspecified) please.
0.035

----------
- test.details: Lipophilicity, log D at pH 7.4 by shake flask method
- condition.context: buffer
measurement.label: logD

Guide cases for logD, answers given:
| compound | measurement.label | obs.value |
| --- | --- | --- |
| CCCSc1c(C(=O)NC2CCCCC2)cnn1-c1ccc(C(=O)O)cc1 | logD | 0.6 |
| CCCSc1c(C(=O)NC2CCCCC2)cnn1[C@H]1CC[C@H](C(=O)O)CC1 | logD | 1 |

Proceeding to the next compound to report its logD.
Report logD for O=C(O)c1ccc(-n2ncc(C(=O)NC3C4CC5CC(C4)CC3C5)c2C2CCCC2)cc1 (stereo not drawn) please.
1.7

----------
- test.details: Oral bioavailability in rat
- Assay type: ADME, organism-based
- condition.context: in vivo
measurement.label: bioavailability (%)
Record the value in %, omitting the unit from your answer.

Guide cases for bioavailability, answers given:
| compound | obs.value |
| --- | --- |
| CCCSc1c(C(=O)N[C@H]2C3CC4CC2C[C@](OC)(C4)C3)cnn1-c1ccc(C(=O)O)cc1 | 54 |
| CCSc1c(C(=O)NC2C3CC4CC(C3)CC2C4)cnn1-c1ccc(C(=O)O)cc1 (stereo not given) | 65 |
| CCCSc1c(C(=O)N[C@H]2C3CC4CC2C[C@](O)(C4)C3)cnn1-c1ccc(C(=O)O)cc1 | 10 |
| CSc1c(C(=O)NC2C3CC4CC(C3)CC2C4)cnn1-c1ccc(C(=O)O)cc1 (stereo not given) | 64 |
| CCCSc1c(C(=O)NC2CCCCC2)cnn1[C@H]1CC[C@H](C(=O)O)CC1 | 100 |

Proceeding to the next compound to report its bioavailability.
Report bioavailability for CCCSc1c(C(=O)N[C@H]2C3CC4CC2C[C@](S(C)(=O)=O)(C4)C3)cnn1-c1ccc(C(=O)O)cc1 please.
7

----------
- target.system: UniProtKB P08684
- Sequence (P08684 whole entry): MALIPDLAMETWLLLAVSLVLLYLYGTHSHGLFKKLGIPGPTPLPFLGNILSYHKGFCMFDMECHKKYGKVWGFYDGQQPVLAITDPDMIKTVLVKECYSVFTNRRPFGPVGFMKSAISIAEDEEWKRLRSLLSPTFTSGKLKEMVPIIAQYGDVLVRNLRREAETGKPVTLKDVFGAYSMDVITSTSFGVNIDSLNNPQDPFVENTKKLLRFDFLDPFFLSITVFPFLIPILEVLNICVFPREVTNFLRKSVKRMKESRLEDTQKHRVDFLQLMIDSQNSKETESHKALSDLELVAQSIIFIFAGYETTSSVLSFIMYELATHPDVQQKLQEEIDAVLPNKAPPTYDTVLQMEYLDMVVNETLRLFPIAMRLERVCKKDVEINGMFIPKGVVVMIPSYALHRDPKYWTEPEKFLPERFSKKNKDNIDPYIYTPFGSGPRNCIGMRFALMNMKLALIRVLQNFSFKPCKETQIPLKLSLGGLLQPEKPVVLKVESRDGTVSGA
- test.details: Inhibition of CYP3A4 at 10 uM
- Format: ADME
measurement.label: inhibition at 10 µM

Report inhibition at 10 µM for CC(C)(C)c1c(C(=O)NC2C3CC4CC(C3)CC2C4)cnn1-c1ccc(C(=O)O)cc1 (stereo unspecified) please.
< 25%
